# Measured Target: HLA-B*15:01
# Assay Name: IEDB peptide-MHC binding, purified MHC/competitive/fluorescence; filed as Kd, often an IC50 or EC50 that approximates it; bounds were set here for any values at or beyond the usual limits of such assays
# Test Parameters: source organism: Mycobacterium tuberculosis variant bovis BCG str. Pasteur 1173P2
pKd: −log10 of the molar value.
Readout Kind: pKd

# Sequence Content, Readout Kind, Reading
rows = [
    ("AVFLSYIGY", "pKd", 5.74),
]

###

# Measured Target: HLA-A*68:02
# Assay Name: IEDB peptide-MHC binding, purified MHC/competitive/fluorescence; filed as Kd, often an IC50 or EC50 that approximates it; bounds were set here for any values at or beyond the usual limits of such assays
# Test Parameters: source organism: Vibrio cholerae
Readout Kind: Kd

# Sequence Content, Readout Kind, Reading
rows = [
    ("TRAPAPFPL", "Kd", "130 nM"),
]

###

# Measured Target: HLA-B*08:02
# Assay Name: IEDB peptide-MHC binding, purified MHC/direct/fluorescence; filed as Kd, often an IC50 or EC50 that approximates it; bounds were set here for any values at or beyond the usual limits of such assays
# Test Parameters: source organism: Campylobacter jejuni subsp. jejuni 81116
pKd: −log10 of the molar value.

# Sequence Content, pKd
records = [
    ("DLKRKFYTL", 6.81),
]

###

# Measured Target: HLA-B*18:01
# Assay Name: IEDB peptide-MHC binding, purified MHC/competitive/fluorescence; filed as Kd, often an IC50 or EC50 that approximates it; bounds were set here for any values at or beyond the usual limits of such assays
# Test Parameters: source organism: Entamoeba histolytica HM-1:IMSS
Readout Kind: Kd

# Sequence Content, Reading
records = [
    ("EVRKAIEFV", "≥ 20 µM"),
]

###

# Measured Target: HLA-B*44:03
# Assay Name: IEDB peptide-MHC binding, purified MHC/competitive/radioactivity; filed as Kd, often an IC50 or EC50 that approximates it; bounds were set here for any values at or beyond the usual limits of such assays
# Test Parameters: source organism: Mammarenavirus juninense
Consider the following sequences and their measured Kd readings.
Readout Kind: Kd

# Sequence Content, Measured Target, Reading
records = [
    ("HDWHLDPPF", "HLA-B*44:03", "7.96 µM"),
    ("HESFDLAGLF", "HLA-B*44:03", "0.776 µM"),
]

###

Consider the following sequences and their measured Kd readings.
# Measured Target: HLA-A*02:01
# Assay Name: IEDB peptide-MHC binding, purified MHC/competitive/fluorescence; filed as Kd, often an IC50 or EC50 that approximates it; bounds were set here for any values at or beyond the usual limits of such assays
# Test Parameters: source organism: Giardia lamblia ATCC 50803
Readout Kind: Kd

# Sequence Content, Measured Target, Reading
rows = [
    ("YARLRKEVL", "HLA-A*02:01", "≥ 20 µM"),
    ("TEDDWITYI", "HLA-A*02:01", "≥ 20 µM"),
    ("NAMGADYYA", "HLA-A*02:01", "≥ 20 µM"),
]

###

# Measured Target: HLA-B*44:03
# Assay Name: IEDB peptide-MHC binding, purified MHC/competitive/radioactivity; filed as Kd, often an IC50 or EC50 that approximates it; bounds were set here for any values at or beyond the usual limits of such assays
# Test Parameters: source organism: Dengue virus 1 Singapore/S275/1990
pKd: −log10 of the molar value.

# Sequence Content, pKd
measured = [
    ("AQIMEVTARW", 6.98),
]
